- test summary: protein stability index of a GFP-peptide fusion (yeast GPS) (PSI 1-4); higher = more stable; sorted into four equal gates, so the index is relative within each strain
- experimental setup: doa10∆
measurement label: protein stability index
Just the number, please, no unit attached.

Examples with their reported protein stability index follow.
biopolymer sequence	protein stability index
RIATEASKLAAYNKKST [HTB1]	3.21
RSTDEFNGAQLKAVTVE [RPT5]	2.86
KPSSPPDVKSLVQLSTM [SIR4]	3.41
IVVQLNGRLNKCGVISP [RPS22A]	3.25
PVPESAGKADTSIRLEG [SRB4]	2.96

In: Given the entry AVYGPRSIRGSFTSQGT [MTR3] , report its measured protein stability index.
Out: 3.16

In: May I ask what protein stability index has been recorded for LRSTIANLLQINVDNDP [YML103C/NUP188] ?
Out: 2.21

In: Need protein stability index, item FLKLVLSESPVDFEKFE [SIN4]
Out: 2.58

In: Can you share its protein stability index? I mean this sequence: KRINKFLDSVHKQGSSY [POP7]
Out: 2.61

In: I have this sequence here, LPTRGTLESLENLVVAD [COR1] , and I need its recorded protein stability index.
Out: 2.83

In: Query (sequence): VLRKQKRYTVKKALAKA [RPL14A] ; field requested: protein stability index
Out: 2.08

Entry source: the supplement of paper PMC9732359
